Measured IC50 by item
Test system: HCV replicon genotype 1b
Experiment: HCV replicon assay, genotype 1b (cell ELISA for NS3/4A)
Type: cell-based, hepatitis C virus
Settings: Hepatitis C virus, 96 h, read-out: 1b IC50 (nM), HCV genotype 1b replicon cells, 96 hours incubation, NS3/4A ELISA readout, % of DMSO control
// return numeric value only (unit: nM, not printed)

// worked examples, IC50 included
| Molecule | Tgt | Readout value |
| --- | --- | --- |
| CNC(=O)c1c(-c2ccc(F)cc2)oc2cc(N(C)S(C)(=O)=O)c([C@H]3CCCN(C(=O)c4cc5cc(F)ccc5n4C)C3)cc12 | HCV replicon genotype 1b | 12.5 |
| CNC(=O)c1c(-c2ccc(F)cc2)oc2cc(N(C)S(C)(=O)=O)c([C@H]3CCCN(C(=O)C(c4ccccc4)c4ccccc4)C3)cc12 | HCV replicon genotype 1b | 53 |
| CNC(=O)c1c(-c2ccc(F)cc2)oc2cc(N(C)S(C)(=O)=O)c([C@H]3CCCN(C(=O)c4cn5cc(Cl)cc(N)c5n4)C3)cc12 | HCV replicon genotype 1b | 136 |
| CNC(=O)c1c(-c2ccc(F)cc2)oc2cc(N(C)S(C)(=O)=O)c([C@H]3CCCN(C(=O)c4n[nH]c(=O)c5ccccc45)C3)cc12 | HCV replicon genotype 1b | 470 |
| CNC(=O)c1c(-c2ccc(F)cc2)oc2cc(N(C)S(C)(=O)=O)c([C@H]3CCCN(S(=O)(=O)Cc4ccc(F)c(F)c4)C3)cc12 | HCV replicon genotype 1b | 3.04 |

INPUT: Requested read-out: IC50. Entry: CNC(=O)c1c(-c2ccc(F)cc2)oc2cc(N(C)S(C)(=O)=O)c(C3CNCC(c4cc5c(F)cccc5[nH]4)N3)cc12 (stereo not drawn)
OUTPUT: 165
